Source: patent US20140050727A1

TESTED TARGET: Human Factor Xa (human, UniProt P00742 41-488, limits assumed)
Sequence (P00742 41-488 limits assumed): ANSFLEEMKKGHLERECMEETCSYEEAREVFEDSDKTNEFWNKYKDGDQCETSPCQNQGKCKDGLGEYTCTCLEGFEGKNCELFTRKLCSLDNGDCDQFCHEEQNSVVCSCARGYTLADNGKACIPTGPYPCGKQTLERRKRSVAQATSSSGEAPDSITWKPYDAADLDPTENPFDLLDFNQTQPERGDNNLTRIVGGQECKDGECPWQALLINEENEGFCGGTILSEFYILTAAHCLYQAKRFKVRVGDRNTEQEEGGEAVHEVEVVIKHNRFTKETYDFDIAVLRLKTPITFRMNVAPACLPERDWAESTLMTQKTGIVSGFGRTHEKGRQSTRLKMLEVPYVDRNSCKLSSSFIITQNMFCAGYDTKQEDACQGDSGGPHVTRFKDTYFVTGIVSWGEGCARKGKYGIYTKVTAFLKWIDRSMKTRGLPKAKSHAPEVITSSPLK
METHOD: cell-based or functional assay
VALUE TYPE: FXa-inhibiting activity

1) AVLPQEEEGSGMAACNLPIVRGPCRAFIKLWAFDAVKGKCVLFPYGG (other) [polypeptide Q19K/Y46D] : ~20 times that of polypeptide AN68
2) AACNLPIVRGPCRAFIRLWAFDAVKGKCVLFPYGGCQGNGNKFYSEK (other) [polypeptide Q19R] : ~6 times that of polypeptide AN68
3) AVLPQEEEGSGMAACNLPIVRGPCRAFIRLWAFDAVKGKCVLFPYGG (other) [polypeptide Q19R/Y46D] : ~18 times that of polypeptide AN68
4) AVLPQEEEGSGMAACNLPIVLGPCRAFIKLWAFDAVKGKCVLFPYGG (other) [polypeptide R11L/Q19K/Y46D] : ~16 times that of polypeptide AN68
5) AACNLPIVRGPCRAFIRLWAFDAVKGKCVLFPYGGCQGNGNKFESEK (other) [polypeptide Q19R/Y46E] : ~10 times that of polypeptide AN68

Query binder follows.
Reported FXa-inhibiting activity, binder AACNLPIVEGPCRAFIQLWAFDAVKGKCVLFPYGGCQGNGNKFESEK (other) [polypeptide R11E/Y46E] : ____
~3 times that of polypeptide AN68
